target_of_assay: EphA2 ligand-binding domain fused to human Fc (EphA2 Fc) (UniProt P29317 24-537)
Sequence (P29317 24-537): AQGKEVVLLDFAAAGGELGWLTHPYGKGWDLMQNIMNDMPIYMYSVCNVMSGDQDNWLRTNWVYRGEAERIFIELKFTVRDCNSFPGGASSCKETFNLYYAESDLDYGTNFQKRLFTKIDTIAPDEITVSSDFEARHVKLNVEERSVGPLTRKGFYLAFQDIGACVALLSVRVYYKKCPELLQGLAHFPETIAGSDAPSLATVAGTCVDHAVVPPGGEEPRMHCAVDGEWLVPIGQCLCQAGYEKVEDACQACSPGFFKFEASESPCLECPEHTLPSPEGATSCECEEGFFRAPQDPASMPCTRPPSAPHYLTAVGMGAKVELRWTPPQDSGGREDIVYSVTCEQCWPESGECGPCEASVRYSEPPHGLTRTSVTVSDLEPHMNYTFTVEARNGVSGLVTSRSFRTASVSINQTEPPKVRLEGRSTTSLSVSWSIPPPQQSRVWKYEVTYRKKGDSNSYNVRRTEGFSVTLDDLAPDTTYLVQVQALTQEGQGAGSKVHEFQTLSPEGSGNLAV
test: ELISA
Where no end group is shown, it is not given here.
measurement_kind: IC50 (µM)
State the answer as a number, implicitly in µM.

Some solved entries appear below for comparison.
- binder: "SWLAYPDSVP (C-terminal amide if made in house) [SWLA-10mer]"
  measurement_kind: "IC50"
  readout_unit: "µM"
  recorded_measurement: 39
- binder: "YSAYPDSVPC (also: homodimer, disulfide between C-terminal cysteines of the two chains) [dimerized YSA-C-10mer]"
  measurement_kind: "IC50"
  readout_unit: "µM"
  recorded_measurement: 1.8
- binder: "YSAYPDSVPC (free C-terminal cysteine thiol; C-terminal amide if made in house) [YSA-C-10mer (monomeric)]"
  measurement_kind: "IC50"
  readout_unit: "µM"
  recorded_measurement: 5.2
- binder: "SWLAYPDSVPMMS (C-terminal amide if made in house) [SWLA-13mer]"
  measurement_kind: "IC50"
  readout_unit: "µM"
  recorded_measurement: 6.5
- binder: "SWLAYPDSVPC (free C-terminal cysteine thiol; C-terminal amide if made in house) [SWLA-C-11mer]"
  measurement_kind: "IC50"
  readout_unit: "µM"
  recorded_measurement: 3.7

In the following, a different binder is considered.
Form field: reported IC50 of YSAFPDSVPMMS (C-terminal amide if made in house) [YSAF-12mer]
47
